I'd be grateful if you could share measured growth for these entries.
# System: CAKI-1 renal
# experiment_summary: NCI-60 one-dose screen, 48 h (100 = growth as untreated, 0 = no growth, -100 = all killed)
# assay_setup: 10 µM unless noted
The panel holds about 83,000 compounds, 20% with a hit somewhere; the sample as a whole holds those more often. The source made the active and inactive calls. How the source made its calls: active means growth percent below 10; inactive means the rest.

q: // Input: N=C(N)c1ccc(-c2ccc(-c3cc(F)cc(F)c3)o2)nc1 . Output its growth only.
a: 78.5% (inactive)

q: // Input: COc1ccc(/C(=C\c2ccc3c(c2)OCO3)C(=O)Nc2nc3ccccc3s2)cc1OC . Output its growth only.
a: 79% (inactive)

q: // Input: Clc1ccc(Cn2cc(-c3nc4ccc(Br)nc4n3Cc3ccc(Cl)cc3)c3cccnc32)cc1 . Output its growth only.
a: 82% (inactive)

###

# Tested on: SNB-19 CNS
# experiment_summary: NCI-60 one-dose screen, 48 h
# assay_setup: 10 µM unless noted
This is part of a sample that, as a whole, favours compounds with a hit. Of some 83,000 tested, about 20% had one in any assay. Calls of active or inactive are those of the source. How the source made its calls: active means growth percent below 10; inactive means the rest.
Select the correct class. Options are T (active), F (inactive) and nothing else.

q: Per the records of this test, what outcome belongs to COc1ccc2c(c1)c(-c1nc(-c3c[nH]c4ncccc34)cs1)cn2CCCN1CCCCC1 ?
a: F

q: Per the records of this test, what outcome belongs to COc1ccc(-c2nc(Nc3ccc(-c4nc5ccccc5[nH]4)cc3)nc(N3CCOCC3)n2)cc1 ?
a: F

q: Per the records of this test, what outcome belongs to O=C1c2cc3c(cc2-c2c1c1ccc(Cl)cc1c(=O)n2C[C@H](O)[C@@H](O)[C@H](O)CO)OCO3 ?
a: T

q: Per the records of this test, what outcome belongs to Cn1c(=O)c2c(ncn2CCC(=O)Nc2ccc(F)cc2)n(C)c1=O ?
a: F

q: Per the records of this test, what outcome belongs to Cc1csc(-c2ccc3c(c2)COC3(CCCN(C)C)c2ccc(F)cc2)c1 (stereo not given) ?
a: F

###

# Test system: SN12C renal
# experiment_summary: NCI-60 one-dose screen, 48 h (100 = growth as untreated, 0 = no growth, -100 = all killed)
# assay_setup: 10 µM unless noted
The panel holds about 83,000 compounds, 20% with a hit somewhere; the sample as a whole holds those more often.
Values of growth greater than or equal to 70% map to satisfied; values below map to not satisfied.

q: Determine whether this compound has growth no lower than 70%: C=C1C(=O)O[C@H]2[C@H]1CC/C(COC(=O)NCCc1c[nH]c3ccccc13)=C\CC[C@@]1(C)O[C@@H]21
a: not satisfied

q: Determine whether this compound has growth no lower than 70%: C=C1C(=O)O[C@H]2[C@H]1CC/C(COC(=O)NCc1c[nH]c3ccccc13)=C\CC[C@@]1(C)O[C@@H]21
a: not satisfied

q: Determine whether this compound has growth no lower than 70%: CCNCCCn1c2c(c3ccc([N+](=O)[O-])cc3c1=O)C(=O)c1cc(OC)cnc1-2
a: not satisfied

q: Determine whether this compound has growth no lower than 70%: CC1=CC(=O)N(c2cccc3c(N4C(=O)C=C(C)C4=O)cccc23)C1=O
a: satisfied

q: Determine whether this compound has growth no lower than 70%: COCCNC1=C(Cl)C(=O)c2ccccc2C1=O
a: satisfied

q: Determine whether this compound has growth no lower than 70%: [B-][N+](CC)(CC)c1ccccc1
a: satisfied

q: Determine whether this compound has growth no lower than 70%: Cc1csc(-c2ccc3c(c2)COC3(CCCN(C)C)c2ccc(F)cc2)c1 (stereo unspecified)
a: not satisfied

q: Determine whether this compound has growth no lower than 70%: O=C(O)c1cccc2c1-c1ccc(Cl)cc1C2
a: satisfied

q: Determine whether this compound has growth no lower than 70%: Nc1c(C(=O)Nc2cccc(Cl)c2)sc2ncc(Cl)cc12
a: satisfied

q: Determine whether this compound has growth no lower than 70%: Fc1ccc(Nc2nc(Nc3ccc(-c4nc5ccccc5[nH]4)cc3)nc(N3CCCC3)n2)cc1
a: satisfied

q: Determine whether this compound has growth no lower than 70%: Cc1nc([P+](c2ccccc2)(c2ccccc2)c2ccccc2)c(Sc2sc(-c3ccccc3)nc2[P+](c2ccccc2)(c2ccccc2)c2ccccc2)o1
a: not satisfied

q: Determine whether this compound has growth no lower than 70%: COc1ccccc1-n1cnc(N)c1C(=O)c1cc(OC)c(OC)c(OC)c1
a: not satisfied

q: Determine whether this compound has growth no lower than 70%: N#CC1=C(N)Oc2ccc3ccccc3c2C1c1ccccc1 (stereo unspecified)
a: not satisfied

q: Determine whether this compound has growth no lower than 70%: Oc1ccccc1/C=N\NC(=S)Nc1ccc(F)cc1
a: not satisfied

q: Determine whether this compound has growth no lower than 70%: COc1ccc(-c2cc(/C=C/C(=O)c3ccc(N)cc3)[nH]n2)cc1
a: not satisfied

q: Determine whether this compound has growth no lower than 70%: CN(CSc1ccc(Cl)cc1)c1ccc(CSc2ccc(Cl)cc2)cc1
a: not satisfied

q: Determine whether this compound has growth no lower than 70%: NS(=O)(=O)c1ccc(CCNC(=O)/C=C/c2ccc(Cl)cc2)cc1
a: satisfied

q: Determine whether this compound has growth no lower than 70%: COC(=O)C(Cc1ccccc1)n1cc(COc2nc(Cl)nc(Nc3ccc(Cl)cc3)n2)nn1 (stereo unspecified)
a: satisfied

q: Determine whether this compound has growth no lower than 70%: C#CCC(C)(O)/C=C/C1=C(C)CCCC1(C)C (stereo unspecified)
a: satisfied

q: Determine whether this compound has growth no lower than 70%: Cc1cccc(C)c1NCc1nc(-c2ccccc2)n[nH]1
a: satisfied

q: Determine whether this compound has growth no lower than 70%: CCCCC[C@H]1C/C=C2/C(=O)C(Cl)=C[C@@H]2C/C=C\CCCC(=O)O1
a: not satisfied

q: Determine whether this compound has growth no lower than 70%: Brc1ccc2[nH]cc(-c3nc(-c4c[nH]c5ncccc45)cs3)c2c1
a: not satisfied

q: Determine whether this compound has growth no lower than 70%: NC(N)=N/N=C/c1ccc(-c2ccc(-c3ccc(Cl)cn3)s2)cc1
a: satisfied

q: Determine whether this compound has growth no lower than 70%: Cc1cc(N=O)cc(C(C)(C)C)c1O
a: satisfied

q: Determine whether this compound has growth no lower than 70%: Cc1ccc(N(CC(=O)Nc2ccc(S(=O)(=O)N3CCC(N4CCCC4)CC3)cc2)S(=O)(=O)c2ccc(Cl)cc2)cc1
a: not satisfied

q: Determine whether this compound has growth no lower than 70%: Oc1cccc2ccc(N/N=C/c3cc(CN4CCCCC4)c(O)c4ncccc34)nc12
a: not satisfied

q: Determine whether this compound has growth no lower than 70%: Fc1ccc2nc(-c3cc(-c4ccc5c(c4)OCO5)n[nH]3)[nH]c2c1
a: not satisfied

q: Determine whether this compound has growth no lower than 70%: Cn1cc(-c2csc(-c3cn(CCN)c4ccccc34)n2)c2cccnc21
a: not satisfied

q: Determine whether this compound has growth no lower than 70%: CC1(C)CC[C@]2(CO)CC[C@]3(C)C(=CC[C@@H]4[C@@]5(C)CC[C@H](NCO)C(C)(C)[C@@H]5CC[C@]43C)[C@@H]2C1
a: not satisfied

###

# Test system: CAKI-1 renal
# experiment_summary: NCI-60 one-dose screen, 48 h (100 = growth as untreated, 0 = no growth, -100 = all killed)
# assay_setup: 10 µM unless noted
# Description: Growth inhibition of the CAKI-1 human tumor cell line is measured as a screen for anti-cancer activity. Cells are grown in 96 well plates and exposed to the test compound for 48 hours. Compounds are tested at a single concentration, which is 10^-5 M for most compounds. The reported endpoint is percent growth (GI% or GIPRCNT), where numbers from 0 - 100% represent growth inhibition, and numbers from -100% - 0 represent cell death. For example, a value of 40 represents 60% growth inhibition. […]
About 83,000 compounds went through this panel and 20% of them were active in at least one assay; those are over-represented in the sample as a whole.
I'd be grateful if you could share measured growth for these entries.
Give the quantity in %, number only.

q: // Input: CCCCCCCN(CCCCCCC)C(=N)c1ccnc2ccccc12 . Output its growth only.
a: 3.85

q: // Input: c1cc(N2CCCC2)c2nc(-c3[nH]ncc3Nc3ncnc4[nH]ccc34)[nH]c2c1 . Output its growth only.
a: -33.2

q: // Input: Nc1ncnc2nc(Br)[nH]c12 . Output its growth only.
a: 93

q: // Input: COc1ccc2c(c1)c(-c1nc(-c3c[nH]c4ncccc34)cs1)cn2C . Output its growth only.
a: 55.1

q: // Input: CCCCC/C(=C\c1ccccc1)C1OC(C)C(C)O1 (stereo not drawn) . Output its growth only.
a: 93.6

q: // Input: Clc1ccc2[nH]cc(-c3nc(-c4c[nH]c5ncccc45)cs3)c2c1 . Output its growth only.
a: 17.1

q: // Input: CN(C)CCCCC(C(=O)CBr)(c1ccccc1)c1ccccc1 . Output its growth only.
a: -23.5

q: // Input: COC(=O)c1cc(=O)nc(N/N=C/c2ccc(C)cc2)s1 . Output its growth only.
a: 102

q: // Input: CC(=O)O[C@H]1CC[C@]2(C)[C@H]3C(=O)C=C4[C@@H]5C[C@](C)(C(=O)N6CCCNCC6)CC[C@]5(C)CC[C@@]4(C)[C@]3(C)CC[C@H]2C1(C)C . Output its growth only.
a: -99.3

q: // Input: C=C(C)[C@@H]1CC[C@]2(C)[C@H](CC[C@@H]3[C@H]4[C@H]5OC[C@@]4(CCC5(C)C)CC[C@]32C)[C@@]1(C)CCCN . Output its growth only.
a: 3.89

q: // Input: CC(=O)c1c(C)[nH]c(-c2nc3ccc(N4CCN(C)CC4)cc3[nH]2)c1-c1ccc2c(c1)OCCO2 . Output its growth only.
a: 13.3

q: // Input: CSc1ccc(N(C)c2nc(C)nc3c2CCC3)cc1 . Output its growth only.
a: 20.5

q: // Input: Cc1cc(N=O)cc(C(C)(C)C)c1O . Output its growth only.
a: 86.1
